TESTED_TARGET: human TRPC6 (Homo sapiens, UniProt Q9Y210)
Construct: expressed in transfected cells
Sequence (Q9Y210 1-931): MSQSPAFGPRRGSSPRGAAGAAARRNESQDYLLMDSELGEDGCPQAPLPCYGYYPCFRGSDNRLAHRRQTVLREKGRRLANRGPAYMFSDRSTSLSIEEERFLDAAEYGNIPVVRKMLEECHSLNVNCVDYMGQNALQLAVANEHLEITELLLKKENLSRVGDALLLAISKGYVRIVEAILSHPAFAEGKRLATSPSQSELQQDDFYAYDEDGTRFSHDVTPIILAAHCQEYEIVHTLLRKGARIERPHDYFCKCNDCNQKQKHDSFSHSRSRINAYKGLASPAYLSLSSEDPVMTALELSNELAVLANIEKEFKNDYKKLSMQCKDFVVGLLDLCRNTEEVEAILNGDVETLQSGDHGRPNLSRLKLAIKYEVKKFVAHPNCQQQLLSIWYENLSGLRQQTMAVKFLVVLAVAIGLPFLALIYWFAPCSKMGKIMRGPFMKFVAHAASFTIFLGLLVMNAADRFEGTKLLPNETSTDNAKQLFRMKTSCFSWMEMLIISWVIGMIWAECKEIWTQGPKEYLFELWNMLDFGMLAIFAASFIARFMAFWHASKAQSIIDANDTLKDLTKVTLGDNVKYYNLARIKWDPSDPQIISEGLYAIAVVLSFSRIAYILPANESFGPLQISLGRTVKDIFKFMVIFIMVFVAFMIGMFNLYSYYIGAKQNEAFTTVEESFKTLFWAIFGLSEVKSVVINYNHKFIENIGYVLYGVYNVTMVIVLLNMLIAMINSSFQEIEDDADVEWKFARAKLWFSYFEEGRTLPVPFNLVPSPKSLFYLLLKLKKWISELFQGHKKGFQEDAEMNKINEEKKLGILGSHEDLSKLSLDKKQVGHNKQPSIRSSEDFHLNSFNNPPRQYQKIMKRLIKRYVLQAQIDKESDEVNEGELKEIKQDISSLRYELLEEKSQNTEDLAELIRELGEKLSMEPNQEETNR
TEST_METHOD_NOTES: High throughput screening assay: Fluo4/AM calcium fluorescence in HEK293/TREx cells expressing human TRPC6, agonist GSK1702934A (single concentration 10 μM and IC50 curves)
Type: cell-based
TEST_CONDITIONS: antagonist effect against human TRPC6, 7 concentrations 20 μM to 0.027 μM, triplicate
Source text: High Throughput Screening Assay This screening assay measures human TRPC6 (transient receptor potential cation channel, subfamily C, member 6) ion channel activation via addition either of the commercially available DAG ligand analogue OAG (1-oleoyl-2-acetyl-sn-glycerol) or of the TRPC6 agonist 1-[1-(4,5,6,7,8-pentahydrocyclohepta[2,1-d]thiophen-2-ylcarbonyl)-4-piperidyl]-3-hydrobenzimidazol-2-one (GSK1702934A). […]
TEST_READOUT: IC50 (nM)

smiles_repr=COc1cc(C(=O)N2CCC(c3nnc(N)cc3OC)CC2)ncc1-c1ccc(C(F)(F)F)nc1 test_readout=IC50 units_text=nM value_measured=660
smiles_repr=COc1cc(C(=O)N2CCN(c3ccc(N)nc3)C[C@@H]2CO)ncc1-c1ccccc1 test_readout=IC50 units_text=nM value_measured=300

I. COc1cc(C(=O)N2CCC(c3cnc(N)cc3OC)CC2)ncc1-c1ccc(C(F)(F)F)cc1
II. COc1cc(C(=O)N2CCC(c3ccc(N)nn3)CC2)ccc1-c1cnc(OC(C)C)nc1
III. COc1cc(C(=O)N2CCN(c3cnc(N)cc3OC)C[C@@H]2CO)ncc1-c1ccccc1
Sort low-to-high on IC50, please. Put the labels in the requested order and list them out. I, III, II
